Data provenance: ChEMBL document CHEMBL1134572

- Tested on: Lactococcus lactis
- experimental.details: Inhibitory activity against family of dihydroorotate dehydrogenase 1A (1A DHOD) from Lactococcus lactis at 1 uMolar concentration
- Design: scale not given: the % may be the effect or the level left
- condition.parameters: 1 uM
measured.property: Activity (%)

[[record]]
compound = "O=C(O)c1ccc(O)c(O)c1"
experimental_system = "Lactococcus lactis"
measured_property = "Activity"
value = 7

[[record]]
compound = "O=C(O)c1cc(O)cc(O)c1 [3,5-DIHYDROXYBENZOIC ACID]"
experimental_system = "Lactococcus lactis"
measured_property = "Activity"
value = 6

[[record]]
compound = "O=C(O)c1ccccc1O"
experimental_system = "Lactococcus lactis"
measured_property = "Activity"
value = 81

[[record]]
compound = "O=C(O)c1ccc(O)cc1"
experimental_system = "Lactococcus lactis"
measured_property = "Activity"
value = 92

[[record]]
compound = "O=C(O)c1ccc(O)cc1O"
experimental_system = "Lactococcus lactis"
measured_property = "Activity"
value = 91

[[record]]
compound = "O=C(O)c1ccc(O)nc1"
experimental_system = "Lactococcus lactis"
measured_property = "Activity"
value = 94


====

- experimental.details: Dissociation constant against 1A […] dehydrogenase (1A DHOD) from Lactococcus lactis at 25 degrees C pH 8.0
pKd: −log10 of the molar value.
measured.property: pKd

[[record]]
structure_string = "O=C(O)c1ccc(O)c(O)c1"
measured_property = "pKd"
value = 4.72


====

- experimental.details: Inhibition constant against 1A […] dehydrogenase (1A DHOD) from Lactococcus lactis
measured.property: Ki (µM)

[[record]]
structure_string = "O=C(O)c1ccc(O)c(O)c1"
measured_property = "Ki"
value = 12

